- PROCEDURE_DETAILS: Binary supramolecular self-assembly systems of polymer and target: guest concentration over incubation time (Comparative Example 2)
- Type: physicochemical
- TEST_CONDITIONS: binary system with 0.5% polymer 101; incubation 0.5 h
- Protocol: Experiments were conducted according to the steps in Comparative Example 1, and quantitative analysis was carried out using the analytical method for each target to investigate the regulation ability […] stacking.
Lab note: cut-off is 100 µg/mL. Strictly less in Concentration of the target in the solution measured after different incubation time is true. Exactly 100 µg/mL or more is false.

Past entries and their recorded results:
| MOLECULE | CLASS_LABEL |
| --- | --- |
| Cc1ccc(-c2cc(C(F)(F)F)nn2-c2ccc(S(N)(=O)=O)cc2)cc1 | false |
| CC(=O)c1c(C)c2cnc(Nc3ccc(N4CCNCC4)cn3)nc2n(C2CCCC2)c1=O | false |
| COC1=CC(=O)C[C@@H](C)[C@]12Oc1c(Cl)c(OC)cc(OC)c1C2=O | false |

Q) Please indicate whether the reported Concentration of the target in the solution measured after different incubation time of "COc1cc2nccc(Oc3ccc(NC(=O)NC4CC4)c(Cl)c3)c2cc1C(N)=O" is strictly below 100 µg/mL.
A) true

Q) Next record, please: CCC(C)n1ncn(-c2ccc(N3CCN(c4ccc(OCC5COC(Cn6cncn6)(c6ccc(Cl)cc6Cl)O5)cc4)CC3)cc2)c1=O (stereo not shown)
A) true

Q) Subsequent entry: "Cc1cn(-c2cc(NC(=O)c3ccc(C)c(Nc4nccc(-c5cccnc5)n4)c3)cc(C(F)(F)F)c2)cn1"
A) false

Q) Same read-out for "CCc1cc2c(cc1N1CCC(N3CCOCC3)CC1)C(C)(C)c1[nH]c3cc(C#N)ccc3c1C2=O" ?
A) true

###

- PROCEDURE_DETAILS: Binary supramolecular self-assembly systems of polymer and target: guest concentration over incubation time (Comparative Example 2)
- Format: physicochemical
- TEST_CONDITIONS: binary system with 0.5% polymer 106; incubation 6 h
QUANTITY: Concentration of the target in the solution measured after different incubation time (µg/mL)
Form entry: value (µg/mL) — number only.

Some solved entries appear below for comparison.
| COMPOUND | UNIT_ANNOTATION | DATA_VALUE |
| --- | --- | --- |
| CCOc1nc2cccc(C(=O)OC(C)OC(=O)OC3CCCCC3)c2n1Cc1ccc(-c2ccccc2-c2nnn[nH]2)cc1 (centres unmarked) | µg/mL | 18.8 |
| CCC(C)n1ncn(-c2ccc(N3CCN(c4ccc(OCC5COC(Cn6cncn6)(c6ccc(Cl)cc6Cl)O5)cc4)CC3)cc2)c1=O (centres unmarked) | µg/mL | 6.4 |
| C=CC[C@@H]1/C=C(\C)C[C@H](C)C[C@H](OC)[C@H]2O[C@@](O)(C(=O)C(=O)N3CCCC[C@H]3C(=O)O[C@H](/C(C)=C/[C@@H]3CC[C@@H](O)[C@H](OC)C3)[C@H](C)[C@@H](O)CC1=O)[C@H](C)C[C@@H]2OC | µg/mL | 5.2 |
| C=CC(=O)N1CCC[C@@H](n2nc(-c3ccc(Oc4ccccc4)cc3)c3c(N)ncnc32)C1 | µg/mL | 68.4 |

Please turn your attention to the following entry.
Q) Which Concentration of the target in the solution measured after different incubation time reading was recorded for the compound "CCc1cc2c(cc1N1CCC(N3CCOCC3)CC1)C(C)(C)c1[nH]c3cc(C#N)ccc3c1C2=O" ?
A) 1.9

###

- PROCEDURE_DETAILS: Binary supramolecular self-assembly systems of polymer and target: guest concentration over incubation time (Comparative Example 2)
- Assay type: physicochemical
- TEST_CONDITIONS: binary system with 0.5% polymer 101; incubation 3 h
- Method: Experiments were conducted according to the steps in Comparative Example 1, and quantitative analysis was carried out using the analytical method for each target to investigate the regulation ability […] stacking.
Concentration of the target in the solution measured after different incubation time: recorded values

Some molecules with known Concentration of the target in the solution measured after different incubation time results, for comparison:
| MOLECULE | DATA_VALUE |
| --- | --- |
| O=C(O)[C@H]1O[C@@H](Oc2cc3oc(-c4ccc(O)cc4)cc(=O)c3c(O)c2O)[C@H](O)[C@@H](O)[C@@H]1O | 125.2 µg/mL |
| COc1cc(/C=C/C(=O)CC(=O)/C=C/c2ccc(O)c(OC)c2)ccc1O | 120.1 µg/mL |
| CC#CC(=O)N1CCC[C@H]1c1nc(-c2ccc(C(=O)Nc3ccccn3)cc2)c2c(N)nccn12 | 193.9 µg/mL |
| CNC(=O)c1cc(Oc2ccc(NC(=O)Nc3ccc(Cl)c(C(F)(F)F)c3)cc2)ccn1 | 751.6 µg/mL |
| CCC(C)n1ncn(-c2ccc(N3CCN(c4ccc(OCC5COC(Cn6cncn6)(c6ccc(Cl)cc6Cl)O5)cc4)CC3)cc2)c1=O (centres unmarked) | 4.8 µg/mL |
| CNC(=O)c1ccc(N2C(=S)N(c3ccc(C#N)c(C(F)(F)F)c3)C(=O)C2(C)C)cc1F [Enzalutamide] | 221.8 µg/mL |
| C=CC[C@@H]1/C=C(\C)C[C@H](C)C[C@H](OC)[C@H]2O[C@@](O)(C(=O)C(=O)N3CCCC[C@H]3C(=O)O[C@H](/C(C)=C/[C@@H]3CC[C@@H](O)[C@H](OC)C3)[C@H](C)[C@@H](O)CC1=O)[C@H](C)C[C@@H]2OC | 88.8 µg/mL |
| COC(=O)[C@H](c1ccccc1Cl)N1CCc2sccc2C1 | 421.5 µg/mL |
| O=C1C[C@@H](c2ccc(O)cc2)Oc2cc(O)cc(O)c21 | 214.9 µg/mL |
| CC(C)OC(=O)CCC/C=C\C[C@@H]1[C@@H](/C=C/C(F)(F)COc2ccccc2)[C@H](O)C[C@@H]1O | 44.8 µg/mL |

Q) Can you look up the measured Concentration of the target in the solution measured after different incubation time of CCCCC1OC(=O)c2ccccc21 (centres unmarked) [Butylphthalide] for me?
A) 229.5 µg/mL

Q) // query: "Cc1cn(-c2cc(NC(=O)c3ccc(C)c(Nc4nccc(-c5cccnc5)n4)c3)cc(C(F)(F)F)c2)cn1"
A) 145.8 µg/mL

Q) Another molecule to check: CCOC(=O)C1=C(C)NC(C)=C(C(=O)OC)C1c1cccc(Cl)c1Cl (centres unmarked)
A) 152.8 µg/mL

Q) Likewise for "COC1=CC(=O)C[C@@H](C)[C@]12Oc1c(Cl)c(OC)cc(OC)c1C2=O" ?
A) 187.9 µg/mL

###

- PROCEDURE_DETAILS: Binary supramolecular self-assembly systems of polymer and target: guest concentration over incubation time (Comparative Example 2)
- Assay type: physicochemical
- TEST_CONDITIONS: binary system with 0.5% polymer 103; incubation 3 h
Concentration of the target in the solution measured after different incubation time under 20000 ng/mL gets YES, anything at or over 20000 ng/mL gets NO.

| CHEM_SMILES | CLASS_LABEL |
| --- | --- |
| CCCNS(=O)(=O)Nc1ncnc(OCCOc2ncc(Br)cn2)c1-c1ccc(Br)cc1 | NO |

Q) # check: Concentration of the target in the solution measured after different incubation time < 20000 ng/mL for "CC(=O)c1c(C)c2cnc(Nc3ccc(N4CCNCC4)cn3)nc2n(C2CCCC2)c1=O"
A) NO

Q) And the next one, "C=C(C)[C@@H]1CCC(C)=C[C@H]1c1c(O)cc(CCCCC)cc1O" ?
A) NO

Q) Consider next the molecule "C=CC(=O)N1CCC[C@@H](n2nc(-c3ccc(Oc4ccccc4)cc3)c3c(N)ncnc32)C1" in the same way.
A) YES

Q) Do the same for "Cc1cn(-c2cc(NC(=O)c3ccc(C)c(Nc4nccc(-c5cccnc5)n4)c3)cc(C(F)(F)F)c2)cn1" please
A) NO

###

- PROCEDURE_DETAILS: Guest molecule concentration after incubation in initial medium without polymer (Comparative Example 1)
- Type: physicochemical
- TEST_CONDITIONS: 6 h; 37° C.; 0.05% SDS in pH 6.8 phosphate buffer
Each entry below carries its reported Concentration of guest molecule measured after different incubated time.
Hey, just the number and the unit after it is fine.

Examples with answers:
| MOLECULE | DATA_VALUE |
| --- | --- |
| CCC(C)n1ncn(-c2ccc(N3CCN(c4ccc(OCC5COC(Cn6cncn6)(c6ccc(Cl)cc6Cl)O5)cc4)CC3)cc2)c1=O (centres unmarked) [Itraconazole, itraconazole] | 2.7 µg/mL |
| C=C(C)[C@@H]1CCC(C)=C[C@H]1c1c(O)cc(CCCCC)cc1O [Cannabidiol] | 8.5 µg/mL |
| Cc1cn(-c2cc(NC(=O)c3ccc(C)c(Nc4nccc(-c5cccnc5)n4)c3)cc(C(F)(F)F)c2)cn1 [Nilotinib] | 17.9 µg/mL |
| CCCSc1nc(N[C@@H]2C[C@H]2c2ccc(F)c(F)c2)c2nnn([C@@H]3C[C@H](OCCO)[C@@H](O)[C@H]3O)c2n1 [Ticagrelor] | 7.8 µg/mL |

Lab note: next molecule to report on.
Q) Recorded Concentration of guest molecule measured after different incubated time for O=C1[C@H](CC[C@H](O)c2ccc(F)cc2)[C@@H](c2ccc(O)cc2)N1c1ccc(F)cc1 [Ezetimibe] , please?
A) 6.4 µg/mL
